Where do the numbers come from? From patent US9585988B2.

Item-by-item account of concentration at 6 h
assay remarks: Tissue concentration of antibiotic after implantation
Format: in vivo
particulars: other: implantation, 6 h, Right, read-out: Average Tissue concentration
value type: concentration at 6 h (ng/mL)

>  <input smiles>
CN(C)c1ccc(O)c2c1C[C@H]1C[C@H]3[C@H](N(C)C)C(O)=C(C(N)=O)C(=O)[C@@]3(O)C(O)=C1C2=O

>  <numeric value>
2600

$$$$
>  <input smiles>
CO[C@H]1/C=C/O[C@@]2(C)Oc3c(C)c(O)c4c(O)c(c(/C=N/N5CCN(C)CC5)c(O)c4c3C2=O)NC(=O)/C(C)=C\C=C\[C@H](C)[C@H](O)[C@@H](C)[C@@H](O)[C@@H](C)[C@H](OC(C)=O)[C@@H]1C

>  <numeric value>
2210

$$$$

* * *

assay remarks: Post implant serum concentration of antibiotic
Format: in vivo
particulars: other: implantation, 24 h

>  <input smiles>
CO[C@H]1/C=C/O[C@@]2(C)Oc3c(C)c(O)c4c(O)c(c(/C=N/N5CCN(C)CC5)c(O)c4c3C2=O)NC(=O)/C(C)=C\C=C\[C@H](C)[C@H](O)[C@@H](C)[C@@H](O)[C@@H](C)[C@H](OC(C)=O)[C@@H]1C

>  <concentration at 24 h [µg/mL]>
0.0443

$$$$
>  <input smiles>
CN(C)c1ccc(O)c2c1C[C@H]1C[C@H]3[C@H](N(C)C)C(O)=C(C(N)=O)C(=O)[C@@]3(O)C(O)=C1C2=O

>  <concentration at 24 h [µg/mL]>
0.0694

$$$$

* * *

assay remarks: Pocket concentration of antibiotic after implantation
Assay type: in vivo
particulars: other: implantation, 2 h, Left

>  <input smiles>
CN(C)c1ccc(O)c2c1C[C@H]1C[C@H]3[C@H](N(C)C)C(O)=C(C(N)=O)C(=O)[C@@]3(O)C(O)=C1C2=O

>  <unit tag>
ng/mL

>  <concentration at 2 h>
16400

$$$$
>  <input smiles>
CO[C@H]1/C=C/O[C@@]2(C)Oc3c(C)c(O)c4c(O)c(c(/C=N/N5CCN(C)CC5)c(O)c4c3C2=O)NC(=O)/C(C)=C\C=C\[C@H](C)[C@H](O)[C@@H](C)[C@@H](O)[C@@H](C)[C@H](OC(C)=O)[C@@H]1C

>  <unit tag>
ng/mL

>  <concentration at 2 h>
2020

$$$$

* * *

assay remarks: Pocket concentration of antibiotic after implantation
Type: in vivo
particulars: other: implantation, 6 h, Left

>  <molecule>
CN(C)c1ccc(O)c2c1C[C@H]1C[C@H]3[C@H](N(C)C)C(O)=C(C(N)=O)C(=O)[C@@]3(O)C(O)=C1C2=O [Minocycline]

>  <concentration at 6 h, ng/mL>
26800

$$$$
>  <molecule>
CO[C@H]1/C=C/O[C@@]2(C)Oc3c(C)c(O)c4c(O)c(c(/C=N/N5CCN(C)CC5)c(O)c4c3C2=O)NC(=O)/C(C)=C\C=C\[C@H](C)[C@H](O)[C@@H](C)[C@@H](O)[C@@H](C)[C@H](OC(C)=O)[C@@H]1C [Rifampin]

>  <concentration at 6 h, ng/mL>
19600

$$$$

* * *

assay remarks: Pocket concentration of antibiotic after implantation
Assay type: in vivo
particulars: other: implantation, after about 6 hours, range worded for embodiments, see Table 8
value type: concentration at 6 h

>  <input smiles>
CN(C)c1ccc(O)c2c1C[C@H]1C[C@H]3[C@H](N(C)C)C(O)=C(C(N)=O)C(=O)[C@@]3(O)C(O)=C1C2=O

>  <result>
25 to 210 µg/mL

$$$$
>  <input smiles>
CO[C@H]1/C=C/O[C@@]2(C)Oc3c(C)c(O)c4c(O)c(c(/C=N/N5CCN(C)CC5)c(O)c4c3C2=O)NC(=O)/C(C)=C\C=C\[C@H](C)[C@H](O)[C@@H](C)[C@@H](O)[C@@H](C)[C@H](OC(C)=O)[C@@H]1C

>  <result>
15 to 110 µg/mL

$$$$
